The measured values listed here are drawn from ChEMBL document CHEMBL1961873.

Listing of entries alongside the reported inhibition.
biological target: Mitogen-activated protein kinase 1 (Homo sapiens); details: at 0.1 µM;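 further: reported figure is an averaged percent inhibition of the kinase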
# output: bare number, implied unit %

Exam item: Report inhibition for "Cc1cccc(Nc2ncc(-c3ccccc3)o2)c1" please.
Marked response: 3.91

Exam item: Report inhibition for "CCNC(=O)O[C@H]1CN[C@H](C#Cc2cc3ncnc(Nc4ccc(OCc5cccc(F)c5)c(Cl)c4)c3s2)C1" please.
Marked response: 1.5

Exam item: Report inhibition for "N#Cc1c(NC(=O)c2ccc(F)cc2)sc2c1CCCC2" please.
Marked response: 0.39

Exam item: Report inhibition for "CNC(=O)c1cccc(C#Cc2cncnc2Nc2ccc(OCc3cccc(F)c3)c(Cl)c2)c1" please.
Marked response: 1.53

Exam item: Report inhibition for "c1ccc(-c2nc3n(c2-c2ccc4c(c2)OCO4)CCC3)nc1" please.
Marked response: -0.55

Exam item: Report inhibition for "N#Cc1c(NC(=O)CN2CCOCC2)sc2c1CCCC2" please.
Marked response: 4.06

Exam item: Report inhibition for "NS(=O)(=O)c1ccc(N/N=C2\C(=O)Nc3ccc4ncccc4c32)cc1" please.
Marked response: 14.9

Exam item: Report inhibition for "COc1ccc2[nH]c3c4[nH]c5ccc(OC)cc5c4c4c(c3c2c1)C(=O)NC4=O" please.
Marked response: 3.5

Further cases:
Exam item: Report inhibition for "CCN1CCC(CC(=O)Nc2n[nH]c3nnc(-c4cccc(F)c4F)cc23)CC1" please.
Marked response: 4.04

Exam item: Report inhibition for "CCn1cc(-c2ccnc3[nH]ccc23)c(-c2cccc(NC(=O)Nc3ccc(OCc4ccccc4)cc3)c2)n1" please.
Marked response: 1.51

Exam item: Report inhibition for "CC(=O)Nc1cccc(C#Cc2cncnc2Nc2ccc(OCc3cccc(F)c3)c(Cl)c2)c1" please.
Marked response: 2.93

Exam item: Report inhibition for "O=C(O[C@H]1CN[C@H](C#Cc2cc3ncnc(Nc4ccc(Cc5ccccc5)cc4)c3s2)C1)N1CCOCC1" please.
Marked response: 3.25
